Every entry's value here was drawn from PubChem BioAssay (NCI).

# System: OVCAR-8 ovarian
# assay.details: NCI-60 one-dose screen, 48 h
# cond: 10 µM unless noted
This is part of a sample that, as a whole, favours compounds with a hit. Of some 83,000 tested, about 20% had one in any assay. Active and inactive are the calls of the source. Rule for the calls: active = growth percent below 10; inactive = the rest.
Labels: true (1) = active, false (0) = inactive

* CN(C)c1ccc(/C=C/c2sc3ccc4ccccc4c3[n+]2C)cc1 | true (1)
* CC(=O)C1Cc2ccccc2C1=O (stereo not given) | false (0)
* CCCCCCCCCCCCCCCCCC1=NCCCN1CCO | false (0)
* O=C1C(=O)c2cccnc2-c2ncccc21 | true (1)
* COC(=O)c1nc(=S)[nH]c(C(=O)OC)c1C(=O)c1ccc(Cl)c(Cl)c1 | false (0)
* Oc1ccc(Br)cc1Sc1cc(Br)ccc1O | false (0)
* COc1cc(NC(=O)C2=C(C)NC(C)=C(C(=O)Nc3cc(OC)c(Cl)cc3OC)C2c2cccc([N+](=O)[O-])c2)c(OC)cc1Cl | false (0)
* CN1CCC(c2ccccc2)(c2ccccc2)C(=O)C1 | false (0)
* OC(c1cc(C23CC4CC(CC(C4)C2)C3)nc2c(Cl)cc(Cl)cc12)C1CCCCN1 (stereo not given) | true (1)
* O=[N+]([O-])c1ccc(C2N(Cc3ccc(Cl)cc3)CCN2Cc2ccc(Cl)cc2)cc1 | false (0)
* O=C(NNc1ccccc1)OCc1ccccc1 | false (0)
* CCCCCCCCCCCCSC(=N)N | true (1)
* Cc1ccccc1N=C(N)Nc1ccccc1C (tested in a mixture with another compound) | false (0)
* Oc1c(Cl)cc(Cl)cc1C=NCC1CCC(CN=Cc2cc(Cl)cc(Cl)c2O)CC1 (stereo not given) | false (0)
* COc1ccc2c(c1)c(CC(=O)O)c(C)n2C(=O)c1ccc(Cl)cc1 | false (0)
* CCCCCCCCCCCCN1C(C)=CS/C1=C\C=C\c1scc(C)[n+]1CCCCCCCCCCCC | true (1)
* Cc1cc(C(=O)c2ccc(Cl)cc2)ccc1O | false (0)
* O=C1Nc2ccc(Br)cc2C1=O | false (0)
* O=C1c2ccccc2Cc2cccc(Cl)c21 | false (0)
* NNc1ccc(Cl)cc1Cl | false (0)
* Oc1ccc(Cl)cc1C(c1cc(Cl)ccc1O)C(Cl)(Cl)Cl | false (0)
* COC(=O)[C@]1(C)CCC[C@]2(C)c3ccc(C(C)C)cc3C(=O)[C@@H](Br)[C@@H]12 | false (0)
* CC(O)C(O)C(O)C(O)C(O)C(=O)NNc1ccccc1 (stereo not given) | false (0)
* CCN1/C(=C/C(C)=C/c2sc3ccc4ccccc4c3[n+]2CC)Sc2ccc3ccccc3c21 | true (1)
* NC(=S)N/N=C\c1nccc2c(N)cccc12 | false (0)
* S=C1SCN(Cc2cccs2)CN1Cc1cccs1 | false (0)
* CN(C)c1ccc(C(=C2C=CC(=[N+](C)C)C=C2)c2ccc(N(C)C)cc2)cc1 | true (1)
* CC1C(c2ccccc2)OCCN1C(=S)Nc1ccc(S(=O)(=O)N2CCCCC2)cc1 (stereo not given) | false (0)
* COC(=O)c1ccc(=O)c2nc3/c(=C/O)c(O)cc(=O)c3[nH]c12 | false (0)
* CN(C)c1ccc(/C=C/c2cc[n+](C)c(/C=C/c3ccc(N(C)C)cc3)c2)cc1 | true (1)
* O=C(CBr)c1ccc(OC(=O)c2ccccc2)cc1 | false (0)
* C1=C(c2ccccc2)c2ccccc2C1 | false (0)
* COc1cc2c(c(OC)c1OC)-c1ccc(NCc3ccccc3)c(=O)cc1[C@@H](NC(C)=O)CC2 | false (0)
* c1ccc(-c2cc3cc4ccccc4cn3c2)cc1 | false (0)
* Nc1nc2ncc(CNc3ccc(C(=O)NC(CCC(=O)NC(CCC(=O)NC(CCC(=O)NC(CCC(=O)NC(CCC(=O)O)C(=O)O)C(=O)O)C(=O)O)C(=O)O)C(=O)O)cc3)nc2c(=O)[nH]1 (stereo not given) | false (0)
* CCOc1ccc(Nc2nc3c(s2)C(=O)c2ccccc2C3=O)cc1 | false (0)
* CCOc1ccc2c(c1)/C(=C\C=C\C1CC(C)C3CC(OCC)CCC3N1CC)CC(C)N2CC (stereo not given) | true (1)
* Cn1ccc(=Nc2ccc(NC(=O)c3ccc(N=c4ccn(C)c5ccc([N+](=O)[O-])cc45)cc3)cc2)cc1 | false (0)
* N=C(N)Sc1cccc[n+]1[O-] | false (0)
* CC(C)(C)c1ccc(O)c(-c2ccccc2)c1 | false (0)
* CC1CC(C)(C)OB(OC(C)CC(C)(C)OB2OC(C)CC(C)(C)O2)O1 (stereo not given) | false (0)
* Clc1ccc(Cc2nc3ccccc3s2)cc1 | false (0)
* O/N=C1\c2ccccc2-c2ccc(F)cc21 | false (0)
* CCOc1cc(F)c([N+](=O)[O-])cc1[N+](=O)[O-] | false (0)
* CN(C)CCSC1=Nc2ccc(Cl)cc2C(c2ccccc2Cl)N(C)C1 (stereo not given) | false (0)
